PROCEDURE_SUMMARY: yeast display, Sf9 membrane polyspecificity reagent, FACS + sequencing; frameworks hold sequencing errors
MEASURE_NAME: polyreactivity (PSR sort gate)

Tell us which polyreactivity (PSR sort gate) value is on record for "QVQLVESGGGLVQAGGSLRLSCAASGTIFLVYAMGWYRQAPGKERELVAAITFSGGDTYADSVKGRFTISRDNAKNTVYLQMNSLKPEDTAVYYCNAPWPFYGSVVGQDFDYWGQGTQVTVSS"
low polyreactivity

Assign polyreactivity (PSR sort gate) to the following record: "QVQLVESGGGLVQAGGSLRLSCAASGFIFGIYAMGWYRQAPGKERELVAAISWRGDSTYYADSVKGRFTISRDNAKNTVYLQMNSLKPEDTAVYYCAAVYYKLVGWYSYRYGYWGQGTQVTVSS"
low polyreactivity

Quick one: give measured polyreactivity (PSR sort gate) for "QVQLVESGGCLVQAGGSLRLSCAASGRIFQSYAMGWYRQAPGKESELVAAISQSGGSTYYADSVQGRFTISRDNAKNTVYVQMNSLKPEDTAVYYCAARSRWYKRYDYWGQGTQVTVSS"
low polyreactivity

State its polyreactivity (PSR sort gate) for this sequence: "QVQLVESGGVLVQAGGSLRLTCAASGRTFGHYAMGWYRQAPGKERELVAANTSSAGRTRYADSVKGRFTISRDYAKNTVYLQMNSLKPEDTAVYYCAVAEGYSPAYLRDYWGQGTQVTVSS"
high polyreactivity

Given the sequence "QLQRVESGGGLVQAGGSLRLSCAASGSIFSPYAMGWYRQAPGKERELVAAISTRGGNTYYADSVKGRFTISRDNAKNTVYLQMNSLKPEDTAVYYCARKIRREGRYDYWGQGTQVTVSS" , write its reported polyreactivity (PSR sort gate).
high polyreactivity

More entries:
Assign polyreactivity (PSR sort gate) to the following record: "QVQLVESGGGLVQAGGSLRLSCAASGLIFDHNAMGWYRQAPGKERELVAAISYSGARTYYADSVKGRFTISRDNAKNTVYLQMYSLKPEDTAVYYCNAVINSHRRHVTYDYWGQGSQVTVSS"
high polyreactivity

Indicate its recorded polyreactivity (PSR sort gate); the sequence in question is "QDQLVESGGGLVQAGGSLRLSCAASGSTFAFKTMGWYRQAPGKERELVAGISSNGGRTYYADSVKGRFTISRDNAKNTVYLQMNSLKPEDTAVYYCNALRRYVSVRPTKSDYWGQGTQVTVSS"
high polyreactivity

Return the recorded polyreactivity (PSR sort gate) value; entry: "QVQLVESGGGLVQAGGSLRLSCAASGSTFVNNAMGWYRQAPGKERELVAAIRNTGGRTYYADSVKGRFTISRDNAKNTVYLQMNSLKPEDTAVYYCAALSRVRTLWRMDYWGQGSQVTVSS"
high polyreactivity

State its polyreactivity (PSR sort gate) for this sequence: "QVQLVESGGGLVQAGGSLRLSCAASGSILDGNAMGWYRQAPGKERELVAAITRSGGRTYYADSVKGRFTISRDNAKNTVYLQMNSLKPEDTAVYYCNVDVPGVRFEYWGQGTQVTVSS"
low polyreactivity

Specify polyreactivity (PSR sort gate) for "QVQLVESGGGLVQAGGSLRLSCAASGRTSYYNTMGWYRPAPGKERELVAASTGRGDSTYYADSVKGRFTISRDNAKKTGYLQMNSLKPEDTAVYYCAADELHLLYRVSKFVDYNHWGQGTQVTVSS" and stop.
low polyreactivity

Given the sequence "QVQLVQSGGGLVQAGGSLRLSCAASGSIFTPNAMGWYRQAPGKERELVAAISGRTGTTYYADSVKGRFTISRDNAKNTVYLQMHSLKPEDTAVYYCAKSSGRYRSDYRGQGTQVTVSS" , write its reported polyreactivity (PSR sort gate).
high polyreactivity

Source listed as the nanobody polyreactivity screen of Harvey et al. (2022).
